Study target: T1, recombinant soluble human TREM2 protein (human TREM2 ECD-FlagHis) (human, UniProt Q9NZC2 19-174)
T1 sequence: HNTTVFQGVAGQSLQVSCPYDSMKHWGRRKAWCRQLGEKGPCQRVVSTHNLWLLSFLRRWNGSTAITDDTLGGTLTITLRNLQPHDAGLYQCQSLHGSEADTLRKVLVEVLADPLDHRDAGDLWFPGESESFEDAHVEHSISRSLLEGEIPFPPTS
Protocol description: Octet BLI binning; competitor: load Ab 24A10
Property measured: sandwich binding signal

Each binder below has a reported value. Please supply its sandwich binding signal.
1. 26C10 (antibody, human IgG2, V domains shown, human IgG2 from hybridoma) VH: EVQLVESGGALVQPGGSLRLSCAASGFTFSSFGMSWVRQAPGKGLEWVSYISSSSFTIYYADSVKGRFTISRDNAKNSFYLQMNSLRDEDTAVYFCVREGGITMVRGVSSYGMDVWGQGTTVTVSS VL: SFELTQPPSVSVSPGQTASITCSGDKLGDKYVCWYQQKPGQSPMLVIYQDTKRPSGIPERFSGSNSGNTATLTISGTQAMDEADYYCQAWDSSTVVFGGGTKLTVL
2. 32E3 (antibody, human IgG2, V domains shown, human IgG2 from hybridoma) VH: EVQLVQSGAEVKKPGESLKISCKGSGYSFTSYWIGWVRQMPGKGLEWMGIIYPGDSDTRYSPSFQGQVTISADKSISTAYLQWSTLKASDTAIYYCARHDIIPAAPGAFDIWGQGTMVTVSS VL: EFVLTQSPGTLSLSPGERATLSCRASQIISSNYLAWYQQKPGQAPRLLIYSASSRATGIPDRFSGSGSGTDFTLTISRLEPEDFAVYYCQQFDSSPITFGRGTRLDIK
3. 10E3 (antibody, human IgG2, V domains shown, human IgG2 from hybridoma) VH: EVQLVQSGAEVKKPGESLMISCKGSGYSFTNYWIGWVRQMPGKGLEWMGIIYPGDSDTRYSPSFQGQVTISADKSISTAYLQWSSLKASDTAMYFCARRRQGIWGDALDIWGQGTLVTVSS VL: EIVMTQSPATLSVSPGERATLSCRASQSVSSNLAWFQQKPGQAPRLLIYGASTRATGIPARFSVSGSGTEFTLTISSLQSEDFAFYYCLQDNNWPPTFGPGTKVDIK

1. 0.541
2. 0.162
3. 0.38
